Molecular target: human GLP-1 receptor (human, UniProt P43220 24-463)
Assay: cell-based or functional assay
*1 amine or outer side, *2 acyl side, *3 side chain or, on linkers, in order; H or OH if unused. Where no end group is shown, it is not given here. Side-chain parts run from the residue outwards. [ ]: non-standard residue; d: D form. The star is where a group is joined. C20 diacid = O=C(O)CCCCCCCCCCCCCCCCCCC(=O)*; C18 diacid = O=C(O)CCCCCCCCCCCCCCCCC(=O)*; γGlu = O=C(O)[C@H](CCC(=O)[*:2])N[*:1]; Desaminohistidyl = O=C(CCc1c[nH]cn1)*; Ac4c = NC1(C(=O)O)CCC1; AEEA = NCCOCCOCC(=O)O; Aib = CC(C)(N)C(=O)O
Binary label based on EC50 GLP-1R [pM], CRE luciferase reporter gene assay with cut-off 7 pM: below gives Y, not below gives N.

Binder	Label
[Desaminohistidyl][Ac4c]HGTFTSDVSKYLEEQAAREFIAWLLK([Gly-Ser-Glu-Gly-Ser-γGlu-γGlu-C18 diacid])T-NH2	Y
[Desaminohistidyl][Aib]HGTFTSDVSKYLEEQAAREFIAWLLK([Ado-Ado-γGlu-C18 diacid])T-NH2	Y
[Desaminohistidyl][Aib]HGTFTSDVSRYLEGRAAREFIAWLLK([γGlu-γGlu-AEEA-γGlu-γGlu-C18 diacid])GAG	Y
[Desaminohistidyl][Aib]HGTFTSDVSRYLEGQAAREFIAWLLK([Gly-Ser-Glu-Gly-Ser-γGlu-γGlu-C18 diacid])T-NH2	N
[Desaminohistidyl][Aib]HGTFTSDVSKYLEEQAAREFIAWLIK([Ado-Ado-γGlu-γGlu-C18 diacid])T-NH2	N
[Desaminohistidyl][Aib]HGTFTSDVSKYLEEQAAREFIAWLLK([γGlu-γGlu-Ser-Gly-Glu-Ser-Gly-C18 diacid])T (Named as peptide, not peptide amide (C-terminal acid))	Y
[Desaminohistidyl][Aib]HGTFTSDVSRYLEEQAAREFIAWLLK([Gly-Ser-Glu-Gly-Ser-γGlu-γGlu-C18 diacid])T-NH2	Y
[Desaminohistidyl][Ac4c]HGTFTSDYSKYLEEQAAREFIAWLLKK([Gly-Ser-Glu-Gly-Ser-γGlu-γGlu-C18 diacid])-NH2	Y
[Desaminohistidyl][Aib]HGTFTSDVSRYLEGRAAREFIAWLLK([γGlu-γGlu-AEEA-γGlu-γGlu-C18 diacid])GSG	Y
[Desaminohistidyl][Aib]HGTFTSDLSKYLEEQAAREFIAWLLK([Ado-Ado-γGlu-γGlu-C18 diacid])T-NH2	N
XXHGTFTSDYSRYLEEQAAREFIAWLLRK (Imp (desamino-His) at 7; Acb at 8; Lys35 N-epsilon acylated with 17-carboxyheptadecanoyl-γGlu-γGlu-Ado-γGlu-Ado-γGlu-Ado-γGlu-; C-terminal amide (GLP-1(7-37) numbering))	Y
XXHGTFTSDYSKYLERRAAREFIAWLLKK (Imp (desamino-His) at 7; Acb at 8; Lys35 N-epsilon acylated with 17-carboxyheptadecanoyl-γGlu-γGlu-Ado-γGlu-Ado-γGlu-Ado-γGlu-; C-terminal amide (GLP-1(7-37) numbering))	N
[Desaminohistidyl][Aib]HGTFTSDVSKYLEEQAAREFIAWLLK([Gly-Ser-Glu-Gly-Ser-γGlu-γGlu-C18 diacid])T-NH2	Y
XXHGTFTSDYSRYLEGRAAREFIAWLLRK (Imp (desamino-His) at 7; Acb at 8; Lys35 N-epsilon acylated with 17-carboxyheptadecanoyl-γGlu-γGlu-Ado-γGlu-Ado-γGlu-Ado-γGlu-; C-terminal amide (GLP-1(7-37) numbering))	N
[Desaminohistidyl]GHGTFTSDVSRYLEEQAAREFIAWLLK([Gly-Ser-Glu-Gly-Ser-γGlu-γGlu-C18 diacid])T-NH2	N
[Desaminohistidyl][Aib]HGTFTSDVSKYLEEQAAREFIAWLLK([Ado-Ado-γGlu-γGlu-C20 diacid])T-NH2	N
[Desaminohistidyl][Aib]HGTFTSDVSKYLEAQAAREFIAWLLK([γGlu-γGlu-Ado-γGlu-γGlu-C18 diacid])T-NH2	Y
